tested on: LOX IMVI; assay: NCI tumour cell line growth inhibition, 48 h
Calls of active or inactive are those of the source. Cut-off read from the data, not from the text of the source: active = GI50 up to about 1.1 µM and inactive = higher.
Response enum: active, inactive

Examples from the recorded data:
> print(dat)
                                   compound  label.value
1           Oc1cc(-c2ccccc2)cn2c1nc1ccccc12       active
2  Cc1c(Cl)ccc2c1NC(=O)C2(O)CC(=O)c1cccc2ccccc12 (stereo unspecified)     inactive
3                            [O-][S+]1CSSC1     inactive
4  O=C1NC(=S)NC(=O)C1=Cc1ccc([N+](=O)[O-])o1     inactive

-- ask Test call for this compound, please: O=C(/C=C/c1ccccc1)c1cc(CN2CCOCC2)c(O)c(CN2CCOCC2)c1
-- reply inactive

-- ask Called result for Nc1ccn([C@H]2CO[C@@H](CO)[C@@H]2O)c(=O)n1
-- reply inactive
